Reported CC50 is given for each of the following compounds.
- MEASUREMENT NOTES: Functional metabolic assay to measure dose dependent changes in cell viability from drug treatment in Vero E6/TMPRSS2 cells (cotreated with P-gp inhibitor, Elacridar). […] Cytotoxicity is reported via measuring absorbance and analysis of MTT/MTS assays in uninfected cells. The assay has been performed by Icahn School of Medicine at Mount Sinai.
- Type: toxicity, cell-based, VeroE6/TMPRSS2
- SETUP CONDITIONS: chlorocebus sabaeus, Vero E6/TMPRSS2 cells, with Elacridar (P-gp inhibitor, concentration not stated); p-gp concentration 2 uM
VALUE KIND: CC50

{"columns": ["SMILES STRUCTURE", "VALUE REPORTED"],
 "data": [
  ["Cc1cc(-c2ccc([C@@H](NC(=O)OCc3ccccc3)C(=O)Nc3cccc(CN)c3)cc2)cs1", "21.2 µM"],
  ["NCc1cccc([C@@H]2C[C@H]2c2cc(Cl)cc(NC(=O)OCc3ccccc3)c2)c1", "> 50 µM"],
  ["O=C(Nc1ccc2c(c1)CNC2)c1cc(C(F)(F)F)cc2[nH]ccc12", "> 50 µM"],
  ["COCCNC(=O)[C@H](Nc1ccc2c(c1)CNC2)c1cc(Cl)cc(C2CC2)c1", "> 50 µM"],
  ["CCc1cc(C(=O)Nc2cccc(CN)c2)sc1-c1ccc(Cl)cc1", "9.12 µM"],
  ["Cn1cc(CCc2nc3c(C(=O)Nc4ccc5c(c4)CNC5)cc(Cl)cc3[nH]2)cn1", "> 50 µM"],
  ["Cc1ccc(S(=O)(=O)CNC(=O)[C@H](Nc2ccc3c(c2)CNC3)c2cc(Cl)cc3[nH]ncc23)cc1", "> 50 µM"],
  ["COc1cc(N[C@@H](C(=O)c2c[nH]c3ccc(OC(F)(F)F)cc23)c2ccc(Cl)cc2OC)cc(S(C)(=O)=O)c1", "> 10 µM"],
  ["NCCCc1ccnc(NC(=O)c2cc(Cl)cc(NC(=O)OCc3ccccc3)c2)c1", "16.2 µM"],
  ["O=C(Nc1ccc2c(c1)CNC2)c1cc(Cl)cc2[nH]ncc12", "< 0.023 µM"],
  ["NCCCc1cccc(NC(=O)c2cc(Cl)cc(NC(=O)OCc3ccccc3)c2)n1", "14.9 µM"],
  ["O=C(Nc1ccc2c(c1)CNC2)c1cc(Cl)cc2ccncc12", "> 50 µM"],
  ["O=C(Nc1ccc2c(c1)CNC2)c1cc(Br)cc2[nH]c(-c3ccccc3)nc12", "14.3 µM"],
  ["O=S(=O)(Nc1cccc(-c2nnn[nH]2)c1)c1cc(Cl)cc(-c2ccccc2)c1", "> 50 µM"],
  ["O=C(Nc1cc(Cl)cc([C@H]2CN(Cc3ccccc3)C[C@@H]2c2cccc(-c3nn[nH]n3)c2)c1)OCc1ccccc1", "> 50 µM"],
  ["O=C(Nc1ccc2c(c1)CNC2)c1cc(F)cc2[nH]nnc12", "> 50 µM"],
  ["O=C(Nc1cc(Cl)cc(C(=O)Nc2cc(-c3nnn[nH]3)ccc2F)c1)OCc1ccccc1", "> 50 µM"],
  ["O=C(Nc1cnc2c(c1)CNCC2)c1cc(Cl)cc2[nH]ncc12", "> 50 µM"],
  ["NCc1cccc(NC(=O)[C@@H](NC(=O)OCc2ccccc2)c2ccc(Br)c(Cl)c2)c1", "8.15 µM"],
  ["O=C(Nc1ccc2c(c1)CNC2)c1cc(Cl)ccc1SC1CCCC1", "> 50 µM"],
  ["CC[C@H](Cc1nnn[nH]1)c1ccc(NC(=O)c2cc(Cl)cc(-n3cccc3)c2)cc1", "> 50 µM"],
  ["CCOC(=O)Nc1cc(Cl)cc(C(=O)Nc2cccc(CN)c2)c1", "> 50 µM"],
  ["O=C(NC[C@H]1CCCO1)[C@H](Nc1ccc2c(c1)CNC2)c1cc(Cl)cc2[nH]ncc12", "> 50 µM"],
  ["Cc1ccc(-c2nnn[nH]2)cc1NC(=O)c1cc(Cl)cc(NC(=O)OCc2ccccc2)c1", "> 50 µM"],
  ["CCCC(=O)Nc1cc(Cl)cc(C(=O)Nc2cccc(CN)c2)c1", "> 50 µM"],
  ["N#Cc1cc(Cl)cc(C(=O)Nc2ccc3c(c2)CNC3)c1", "> 50 µM"],
  ["N#C[C@H](Nc1cccc(-c2nn[nH]n2)c1)c1cc(Cl)cc(NC(=O)OCc2ccccc2)c1", "> 50 µM"],
  ["N#C[C@H](Nc1ccc2c(c1)CNC2)c1cc(Cl)cc(C2CC2)c1", "> 50 µM"],
  ["NCc1cccc(NC(=O)c2cc(Cl)cc(-n3cccc3)c2)c1", "> 50 µM"],
  ["CNC(=O)[C@H](Nc1ccc2c(c1)CNC2)c1cc(Cl)cc(C2CC2)c1", "> 50 µM"],
  ["O=C(Nc1ccc2c(c1)CNCCC2)c1cc(Cl)cc2[nH]ncc12", "> 50 µM"],
  ["O=C(Nc1cc(Cl)cc(C(=O)Nc2cccc([C@H]3CCNC3)c2)c1)OCc1ccccc1", "20.1 µM"],
  ["Nc1cc(Cl)cc(C(=O)Nc2ccc3c(c2)CNC3)c1N", "> 50 µM"],
  ["COC(=O)c1cc(NC(=O)c2cc(Cl)cc(NC(=O)OCc3ccccc3)c2)cc(-c2nnn[nH]2)c1", "> 50 µM"],
  ["CC[C@H](Cc1nn[nH]n1)c1ccc(N[C@H](C(=O)NC)c2cc(Cl)cc(NC(=O)OCc3ccccc3)c2)cc1", "> 50 µM"],
  ["O=C(Nc1cc(Cl)cc(C(=O)Nc2cc(Br)cc(-c3nnn[nH]3)c2)c1)OCc1ccccc1", "> 50 µM"],
  ["Cn1cc2cc(Cl)cc(C(=O)Nc3ccc4c(c3)CNC4)c2n1", "> 50 µM"],
  ["CC(C)OC(=O)Nc1cc(Cl)cc(C(=O)Nc2cccc(CN)c2)c1", "> 50 µM"],
  ["O=C(Nc1ccc2c(c1)CNC2)c1cc(Cl)cc(C2CC2)c1", "> 50 µM"],
  ["Cc1ccc(NC(=O)c2cc(Cl)cc(NC(=O)OCc3ccccc3)c2)cc1CN", "15 µM"]
]}

###

- MEASUREMENT NOTES: Functional assay to measure dose dependent changes in cell viability from drug treatment in Vero E6 miRFP670 cells (cotreated with P-gp inhibitor, CP100356) that are infected with Dengue virus type 2 New Guinea C. […] Cytotoxicity is reported via via analysis of DAPI count using high-content imager. The assay has been performed by KU Leuven.
- Assay type: toxicity, cell-based, Vero C1008
- SETUP CONDITIONS: chlorocebus sabaeus, with CP100356 (P-gp inhibitor, concentration not stated); p-gp concentration 500 nM
Known CC50 of a selection of molecules

{"columns": ["SMILES STRUCTURE", "CC50"],
 "data": [
  ["O=C(Nc1cc2c(cc1Br)CNC2)c1cc(F)cc2[nH]ncc12", "> 50 µM"],
  ["NCc1csc2cc(C(=O)Nc3ccc4c(c3)CNC4)ccc12", "5.74 µM"],
  ["O=C1Nc2ccc(C(=O)Nc3ccc4c(c3)CNC4)cc2C1=O", "25.7 µM"],
  ["COc1cc(-c2cc(NC(=O)c3cc(F)cc4[nH]ncc34)cc3c2CNC3)ccn1", "> 50 µM"],
  ["O=C(Nc1cc(Cl)cc([C@H](C#CCO)Nc2ccc(-c3nn[nH]n3)cc2)c1)OCc1ccccc1", "> 50 µM"],
  ["O=C(Nc1ccc2c(c1)CNC2)c1cc(Cl)cc2[nH]c(-c3cc(C4CC4)[nH]n3)nc12", "1.27 µM"],
  ["O=C(Nc1ccc2c(c1)CNC2)c1cccc2cn[nH]c12", "> 50 µM"],
  ["O=C(Nc1ccc2c(c1)CNC2)c1cc(Br)cc2[nH]c(Cc3ccccc3)nc12", "9.98 µM"],
  ["CO[C@H]1C[C@H](n2ncc3c(C(=O)Nc4ccc5c(c4)CNC5)cc(Cl)cc32)C1", "47.5 µM"],
  ["O=C1Cc2c(cccc2C(=O)Nc2ccc3c(c2)CCNCC3)N1", "> 50 µM"],
  ["O=C(Nc1ccc2c(c1)CNC2)c1cc(Cl)cc2cn[nH]c12", "5 µM"],
  ["CC(=Cc1cccc(CN)c1)c1cc(Cl)cc(NC(=O)OCc2ccccc2)c1", "3.26 µM"],
  ["O=C1Cc2cc(C(=O)Nc3ccc4c(c3)CNC4)ccc2N1", "> 50 µM"],
  ["O=C(Nc1ccc2c(c1)B(O)OC2)c1cccc(OCc2c(Cl)cccc2Cl)c1", "> 10 µM"],
  ["OCC#C[C@H](Nc1ccc2c(c1)CNC2)c1cc(Cl)cc2[nH]ncc12", "> 50 µM"],
  ["NCc1cccc(NC(=O)[C@@H](NC(=O)OCc2ccccc2)c2ccc(OCc3ccccc3)cc2)c1", "5.95 µM"],
  ["NCCCCc1ccc(NC(=O)c2cc(Cl)cc(NC(=O)OCc3ccccc3)c2)cc1", "6.49 µM"],
  ["Cc1c(C(=O)Nc2cc(-c3cccnc3)ccn2)cc(C2CC2)n1C", "18.9 µM"],
  ["O=C(Nc1ccc2c(c1)CNC2)c1cccc2c1[C@]1(CCNC1)C(=O)N2", "> 50 µM"],
  ["O=C(Nc1cc(Cl)cc(C(=O)Nc2ccc3c(c2)CCNC3)c1)OCc1ccccc1", "2.91 µM"],
  ["NCc1cccc(NC(=O)[C@H](NC(=O)OCc2ccccc2)c2ccc(Br)c(Cl)c2)c1", "13.4 µM"]
]}

Data origin, for the record: ChEMBL document CHEMBL5661955
